Organism: Rattus norvegicus
Assay: Displacement of [35S]TBPS from GABAA receptor in Sprague-Dawley rat cortex membrane
Format: cell membranes
QUANTITY: Imax
Enter the number, and then the unit.

See these solved cases before continuing.
CCOC(=O)/C(=C\Nc1cccc(Cl)c1)C(=O)c1ccccc1Cl; 100%
CCC(CC)NC(=O)/C(=C\Nc1ccc(Cl)cc1)C(=O)c1ccccc1Cl; 86%
CC(C)(C)NC(=O)/C(=C\Nc1ccc(Cl)cc1)C(=O)c1ccccc1Cl; 100%

Task item: I would be grateful if you could share the reported Imax for `CCOC(=O)/C(=C\Nc1ccc(F)cc1)C(=O)c1ccccc1Cl` .
Reply: 93%

Task item: // query: CCC(C)NC(=O)/C(=C\Nc1ccc(Cl)cc1)C(=O)c1ccccc1Cl (configuration not stated)
Reply: 86%

Task item: // query: `CCOC(=O)/C(=C\Nc1ccc(F)cc1)C(=O)c1ccc(Cl)cc1`
Reply: 100%

Task item: // query: `CCNC(=O)/C(=C\Nc1ccc(Cl)cc1)C(=O)c1ccccc1Cl`
Reply: 82%

Task item: // query: `CCOC(=O)/C(=C\Nc1ccccc1Cl)C(=O)c1ccccc1Cl`
Reply: 100%
